system: HeLa Kyoto; experiment: solubility change mitosis vs G1/S (difference of NP-40 vs SDS log2 ratios) (log2 ratio difference); higher = more soluble in mitosis;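 further: synchronized HeLa Kyoto cells (double thymidine block for G1/S, nocodazole release for mitosis), protein amounts in NP-40 versus SDS lysates quantified by mass spectrometry, three biological replicates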
Listed here: items and their measured solubility change mitosis (log2).
endpoint.name: solubility change mitosis (log2)

residue.sequence: MKLYSLSVLYKGEAKVVLLKAAYDVSSFSFFQRSSVQEFMTFTSQLIVERSSKGTRASVKEQDYLCHVYVRNDSLAGVVIADNEYPSRVAFTLLEKVLDEFSKQVDRIDWPVGSPATIHYPALDGHLSRYQNPREADPMTKVQAELDETKIILHNTMESLLERGEKLDDLVSKSEVLGTQSKAFYKTARKQNSCCAIM [YKT6]
endpoint.name: solubility change mitosis (log2)
measurement: -0.0935

residue.sequence: MSQSKGKKRNPGLKIPKEAFEQPQTSSTPPRDLDSKACISIGNQNFEVKADDLEPIMELGRGAYGVVEKMRHVPSGQIMAVKRIRATVNSQEQKRLLMDLDISMRTVDCPFTVTFYGALFREGDVWICMELMDTSLDKFYKQVIDKGQTIPEDILGKIAVSIVKALEHLHSKLSVIHRDVKPSNVLINALGQVKMCDFGISGYLVDSVAKTIDAGCKPYMAPERINPELNQKGYSVKSDIWSLGITMIELAILRFPYDSWGTPFQQLKQVVEEPSPQLPADKFSAEFVDFTSQCLKKNSKERPTYPELMQHPFFTLHESKGTDVASFVKLILGD [MAP2K6]
endpoint.name: solubility change mitosis (log2)
measurement: -0.158

residue.sequence: MEEASEGGGNDRVRNLQSEVEGVKNIMTQNVERILARGENLEHLRNKTEDLEATSEHFKTTSQKVARKFWWKNVKMIVLICVIVFIIILFIVLFATGAFS [VAMP8]
endpoint.name: solubility change mitosis (log2)
measurement: 0.136

residue.sequence: MGRAVKVLQLFKTLHRTRQQVFKNDARALEAARIKINEEFKNNKSETSSKKIEELMKIGSDVELLLRTSVIQGIHTDHNTLKLVPRKDLLVENVPYCDAPTQKQ [LYRM7]
endpoint.name: solubility change mitosis (log2)
measurement: 0.302
